# study-target: T1, Recombinant Human CTLA-4-Fc Chimera (BioLegend) (human, UniProt P16410 36-161, limits assumed)
# T1 construct: Bought reagent; also called hCTLA-4; hCTLA-4 immobilized; not shown: human IgG1 Fc
# T1 sequence (looked up): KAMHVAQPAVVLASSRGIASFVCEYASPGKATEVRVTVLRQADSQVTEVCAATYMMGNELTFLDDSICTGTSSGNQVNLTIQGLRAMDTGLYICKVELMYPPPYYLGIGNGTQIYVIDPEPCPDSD
# experimental-protocol: SPR (Biacore), Fc-fused hCTLA-4 captured by anti-human IgG (Fc), scFv as analyte, single cycle kinetics
The label is true (1) for kon below 900000 M⁻¹ s⁻¹ and false (0) for kon equal to or exceeding 900000 M⁻¹ s⁻¹.

Reference set (4 entries):
anti-hCTLA-4scFv01 (not tagged) of single-expression strain C2TLB (scFv, Plasmid pC2TLB; PC2TL and PC7TL secrete the same scFv; Signal peptide SP67 left out; also called scFv derived from C2TLB strain; anti-hCTLA-4scFv01 in culture supernatants of PC2TL and PC7TL) scFv: AQVQLVESGGGVVQPGRSLRLSCAASGFTFSSYGMHWVRQAPGKGLEWVAVIWYDGSNKYYADSVKGRFTISRDNSKNTLYLQMNSLRAEDTAVYYCARDPRGATLYYYYYGMDVWGQGTTVTVSSGGGGSGGGGSGGGGSDIQMTQSPSSLSASVGDRVTITCRASQSINSYLDWYQQKPGKAPKLLIYAASSLQSGVPSRFSGSGSGTDFTLTISSLQPEDFATYYCQQYYSTPFTFGPGTKVEIK; false (0)
anti-hCTLA-4scFv01-FLAG purified from single-expression strain C2F (scFv, Plasmid pP30SP67L1-hCTLA-4scFv01-FLAG (pC2F); PC2 and PC7 secrete the same scFv; Signal peptide SP67 left out; also called scFv derived from C2F strain) scFv: AQVQLVESGGGVVQPGRSLRLSCAASGFTFSSYGMHWVRQAPGKGLEWVAVIWYDGSNKYYADSVKGRFTISRDNSKNTLYLQMNSLRAEDTAVYYCARDPRGATLYYYYYGMDVWGQGTTVTVSSGGGGSGGGGSGGGGSDIQMTQSPSSLSASVGDRVTITCRASQSINSYLDWYQQKPGKAPKLLIYAASSLQSGVPSRFSGSGSGTDFTLTISSLQPEDFATYYCQQYYSTPFTFGPGTKVEIKDYKDDDDK; true (1)
anti-hCTLA-4scFv01-FLAG purified from single-expression strain C3F (scFv, Plasmid pP30SP68L1-hCTLA-4scFv01-FLAG (pC3F); PC3, PC5 and PC8 secrete the same scFv; also called scFv derived from C3F strain) scFv: DQVQLVESGGGVVQPGRSLRLSCAASGFTFSSYGMHWVRQAPGKGLEWVAVIWYDGSNKYYADSVKGRFTISRDNSKNTLYLQMNSLRAEDTAVYYCARDPRGATLYYYYYGMDVWGQGTTVTVSSGGGGSGGGGSGGGGSDIQMTQSPSSLSASVGDRVTITCRASQSINSYLDWYQQKPGKAPKLLIYAASSLQSGVPSRFSGSGSGTDFTLTISSLQPEDFATYYCQQYYSTPFTFGPGTKVEIKDYKDDDDK; true (1)
anti-hCTLA-4scFv01 (not tagged) of single-expression strain C3TLB (scFv, Plasmid pC3TLB; PC3TL, PC5TL and PC8TL secrete the same scFv; Signal peptide SP68 left out; also called scFv derived from C3TLB strain; anti-hCTLA-4scFv01 in culture supernatants of PC3TL, PC5TL and PC8TL) scFv: DQVQLVESGGGVVQPGRSLRLSCAASGFTFSSYGMHWVRQAPGKGLEWVAVIWYDGSNKYYADSVKGRFTISRDNSKNTLYLQMNSLRAEDTAVYYCARDPRGATLYYYYYGMDVWGQGTTVTVSSGGGGSGGGGSGGGGSDIQMTQSPSSLSASVGDRVTITCRASQSINSYLDWYQQKPGKAPKLLIYAASSLQSGVPSRFSGSGSGTDFTLTISSLQPEDFATYYCQQYYSTPFTFGPGTKVEIK; true (1)

Now look at this one.
Given anti-hCTLA-4scFv01 (not tagged) of single-expression strain C1TLB (scFv, Plasmid pC1TLB; PC4TL and PC6TL secrete the same scFv; Signal peptide SP50 left out; also called scFv derived from C1TLB strain; anti-hCTLA-4scFv01 in culture supernatants of PC4TL and PC6TL) scFv: ATLTPQVQLVESGGGVVQPGRSLRLSCAASGFTFSSYGMHWVRQAPGKGLEWVAVIWYDGSNKYYADSVKGRFTISRDNSKNTLYLQMNSLRAEDTAVYYCARDPRGATLYYYYYGMDVWGQGTTVTVSSGGGGSGGGGSGGGGSDIQMTQSPSSLSASVGDRVTITCRASQSINSYLDWYQQKPGKAPKLLIYAASSLQSGVPSRFSGSGSGTDFTLTISSLQPEDFATYYCQQYYSTPFTFGPGTKVEIK , is recorded kon strictly lower than 900000 M⁻¹ s⁻¹?
true (1)
